# Tgt: Nuclear receptor subfamily 1 group I member 3 (Homo sapiens) (UniProt Q14994)
# Sequence (Q14994 whole entry, looked up): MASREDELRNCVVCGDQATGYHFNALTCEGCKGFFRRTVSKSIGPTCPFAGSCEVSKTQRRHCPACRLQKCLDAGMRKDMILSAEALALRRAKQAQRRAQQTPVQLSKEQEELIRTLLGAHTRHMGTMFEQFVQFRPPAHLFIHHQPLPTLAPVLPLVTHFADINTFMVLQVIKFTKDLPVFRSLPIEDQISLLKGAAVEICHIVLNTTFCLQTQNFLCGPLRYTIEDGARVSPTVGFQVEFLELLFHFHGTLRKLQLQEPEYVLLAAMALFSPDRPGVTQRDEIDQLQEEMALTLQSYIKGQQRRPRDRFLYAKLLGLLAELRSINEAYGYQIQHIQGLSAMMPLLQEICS
# Assay Summary: qHTS assay to identify small molecule agonists of the constitutive androstane receptor (CAR) signaling pathway (AID 1224839); note: nearly all actives have a fitted effect of over 15% in size;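 for activation: HepG2 cells stably carrying human CAR and a CYP2B6 luciferase reporter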
# Test Parameters: HepG2 hCAR CYP2B6-luciferase, agonist mode, 24 h; series mostly up to 42.5 µM
# Text: National Center for Advancing Translational Sciences [NCATS] NIH Chemical Genomics Center [NCGC] U.S. Environmental Protection Agency [EPA] National Institutes of Environmental Health Sciences [NIEHS] National Toxicology Program [NTP] […] Assay Protocol Summary: A double-stable (hCAR and CYP2B6-2.2kb) transfected cell line, derived from human hepatoma (HepG2) cells, was utilized for the duration of the quantitative high-throughput screens. […]
Records with an inconclusive call do not appear. The source made the active and inactive calls. Calls come from the whole dose curve; as a rule, active = well fitted activation curve with a large enough effect in the repeat runs; inconclusive = weak or mixed curves; inactive = no such curve, though single readings can be large or run the other way.
Classes used: yes (active), no (inactive)

compound=CCc1cc(C2=C(C(=O)O)N(c3ccccc3C(F)(F)F)S(=O)(=O)c3ccccc32)cc2c1OCO2 answer_label=no
compound="CN1Cc2cc(C(=O)N3CCC(C4CCNCC4)CC3)ccc2NC(CC(=O)O)C1=O (stereo unspecified)" answer_label=no
compound=C[Si](C)(CCCN)O[Si](C)(C)CCCN answer_label=no
compound=CCOC(=O)c1cccnc1 answer_label=no
compound=O=C1c2ccccc2S(=O)(=O)N1CCCCN1CCN(c2ncccn2)CC1 answer_label=no
compound=C#CCN(C)CCCOc1ccc(Cl)cc1Cl answer_label=yes
compound=CC(=O)c1cccc([N+](=O)[O-])c1 answer_label=no
compound=O=C1[C@H]2CCCC[C@H]2C(=O)N1CCCCN1CCN(c2nsc3ccccc23)CC1 answer_label=no
compound=CCN(CC)c1ccc(C(=C2C=CC(=[N+](CC)CC)C=C2)c2cc(S(=O)(=O)O)ccc2S(=O)(=O)[O-])cc1 answer_label=no
compound=Cc1oc(-c2ccccc2)nc1CCOc1cccc2c1ccn2CCC(=O)O answer_label=no
compound=CCCCCCCCCOS(=O)(=O)O answer_label=no
